target: GPR39 (Homo sapiens, UniProt O43194)
Sequence (O43194 whole entry): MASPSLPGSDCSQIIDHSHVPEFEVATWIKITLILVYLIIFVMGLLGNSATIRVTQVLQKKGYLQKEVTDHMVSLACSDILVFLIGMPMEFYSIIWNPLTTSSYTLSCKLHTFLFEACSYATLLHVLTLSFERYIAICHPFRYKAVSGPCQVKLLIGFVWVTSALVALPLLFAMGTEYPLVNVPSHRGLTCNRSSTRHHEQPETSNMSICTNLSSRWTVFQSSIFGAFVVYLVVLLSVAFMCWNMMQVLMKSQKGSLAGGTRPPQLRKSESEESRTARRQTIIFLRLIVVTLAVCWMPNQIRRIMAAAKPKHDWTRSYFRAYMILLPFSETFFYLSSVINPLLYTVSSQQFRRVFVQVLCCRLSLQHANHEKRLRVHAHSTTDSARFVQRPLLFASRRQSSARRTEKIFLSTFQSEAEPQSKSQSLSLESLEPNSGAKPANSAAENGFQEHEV
Square brackets hold non-standard residues; d marks the D form. Peptide text beside a SMILES is read from it. * marks the point of attachment. dHis(Trt) = N[C@H](Cc1cn(C(c2ccccc2)(c2ccccc2)c2ccccc2)cn1)C(=O)O; dPhe(4-Me) = Cc1ccc(C[C@@H](N)C(=O)O)cc1; Octanoyl = CCCCCCCC(=O)*
result-type: ECmax (-fold induction over basal)

Examples from the recorded data:
molecule	system-under-test	value-reported
CCCCCCCC(=O)NCCCC[C@H](NC(=O)[C@@H](N)Cc1cn([C@H](c2ccccc2)c2ccc(C)cc2)cn1)C(=O)N[C@@H](Cc1ccccc1)C(=O)N[C@@H](Cc1ccc(O)cc1)C(=O)O [HKFY-22]	GPR39 (Homo sapiens, UniProt O43194)	21.3 ± 1.8 -fold induction over basal
CCCCCCCC(=O)NCCCC[C@H](NC(=O)[C@@H](N)Cc1cn([C@H](c2ccccc2)c2ccc(Cl)cc2)cn1)C(=O)N[C@@H](Cc1ccccc1)C(=O)N[C@@H](Cc1ccc(O)cc1)C(=O)O [HKFY-21]	GPR39 (Homo sapiens, UniProt O43194)	18.3 ± 2.5 -fold induction over basal

Q: Provide value of ECmax (-fold induction over basal) for this record tested with GPR39 (Homo sapiens, UniProt O43194): CCCCCCCC(=O)NCCCC[C@H](NC(=O)[C@H](N)Cc1cn(C(c2ccccc2)(c2ccccc2)c2ccccc2)cn1)C(=O)N[C@H](Cc1ccc(C)cc1)C(=O)N[C@@H](Cc1ccc(O)cc1)C(=O)O [HKFY-31] (H-[dHis(Trt)]K(Octanoyl)[dPhe(4-Me)]Y-OH)
A: 20.9 ± 2.51 -fold induction over basal
